TARGET: pooled human IgG (human); further: test concentration or dose not given here
TEST METHOD NOTES: cell-based or functional assay
PROPERTY: Enzyme Activity Endpoint Assay (purified): Fab′2 (ng/µL)
Answers are plain numbers, in ng/µL.

Worked set:
1) PRT-220 (enzyme) MEVVEVWPYGQNPNGKTEILSQTEDSESLQRLRDIEDFQAEKKKQGVVYTKWLDGVNVDDHEFRKITDGNTEYYATPLLNGRGYYDINKDFNRDSDKCAAAVAANMFHYWLDRNRDNVDRFLRQNPDKHGIIELPDGQLKLSDFLNTYESDHDYRDKSKLFDFISNNFNGPVWTNKLLDNYINGYGYNYKYGRTIEDPTKNTSKINFFKEVFNGKLLTDNHSIRNKNEFSSKLSEALYTGKAIGLSYGPAGLRHSLGHIISVWGADLDEDGNVVAIYVTDSDDKKLTIGDERVGLKRYKVSYDDEGRARLTAYEETDNTGGEIRGLWTLDTGKQYWADYFDKTEQTGTDQAEQLEHHHHHH ... 0
2) PRT-226 (enzyme) MEVVEVWPYGQNPNGKTEILSQTEDSESLQRLRDIEDFQAEKKKQNVVYTKWLDGVDVDDHDFRKIVDGNTEYYATPLLNGRGFYDINKDFNRDSDKCAAAVAANMFHYWLDRNRDNVDRFLRQNPEKHGIIELPDGQLKLSDFLNTYESDHGYRDKSKLFDFISNNFNGPVWTNKLLDNYINGYGYNYKYGRTIEDPTKNTSKINFFKEVFNEKILTNNHSIRNQNEFSVLLSEALYTGKAIGLSYGPAGLRHSLGHIISVWGADLDADGNVVAIYVTDSDDKKLTIGDERVGLKRYKISTDDEGRARLTAYEETDNTGGQIRGLWTLDTGKQAWADYFDKTEQTGTDQAEQLEHHHHHH ... 0
3) PRT-196 (enzyme) MEVVEVWPYGQNPNGKTEILSQTEDSESLQRLRDIEDFQAEKKMQNVVYTKWLDGVDVKDHDFRKIVDGNIAYYATPLLNGRGFYDINKDFNRDSDKCAAAVAANMFHYWLDINRDNVDRFLRQNPEKHGIIELPDGQLKLSDFLNTYESDHGYRDKSKLFDFISNNFNGPVWTDKLLDNYINGYAYNYKYGRTIEDPTKNTSKINFFKEVFNEKILTNNHSIRNQNEFSVLLSEALYTGKAIGLSYGPAGLRHSLGHIISVWGADLDADGNVVAIYVTDSDDKKLTIGDERVGLKRYKISTDDENRLRLTAYEETHNTGGQIRGLWTLDTGKYAWADYFDKTEQTGTDQAEQLEHHHHHH ... 152
4) PRT-195 (enzyme) MANQEIRYSEVTPYHVTSVWTKGVTPPDHDFRKIVDGEDVFHAPYVANQGWYDITKTFNGKDDLLCGAATAGNMLHWWFDQNKDQIKRYLEEHPEKQKINFNGEQMFDVKEAIDTKNHQLDSKLFEYFKEKAFPYLSTKHLGVFPDHVIDMFINGYRLSLTNHGPTPVKEGSKDPRGGIFDAVFTRGDQSKLLTSRHDFKEKNLKEISDLIKKELTEGKALGLSHTYANVRHSINHVINLWGADFDSNGNLKAIYVTDSDDKKLTIGDERIGMKKYFVGVNSAGKVAISAKEIKEDNIGAQVLGLFTLSTGQDSWNQTN ... 0
5) PRT-199 (enzyme) MEVVEVWPYGQNPNGKTEILSQTEDSESLQRLRDIEDFQAEKKKQNVVYTKWLDGVDVKDHDFRKIVDGNIAYYATPLLNGRGFYDINKDFNRDSDKCAAAVAANMFHYWLDRNRDNVDRFLRQNPEKHGIIELPDGQLKLSDFLNTYESDDGYRDKSKLFDFISNNFNGPVWTDKLLDNYINGYAYNYKYGRTIEDPTKNTSKINFFKEVFNEKILTNNHSIRNQNEFSVLLSEALYTGKAIGLSYGPAGLRHSLGHIISVWGADLDADGNVVAIYVTDSDDKKLTIGDERVGLKRYKISTDDEGRLRLTAYEETHNTGGQIRGLWTLDTGKQAWADYFDKTEQTGTDQAEQLEHHHHHH ... 95

Could you tell me Enzyme Activity Endpoint Assay (purified): Fab′2 for each of these binders? They are listed below.
1. PRT-203 (enzyme) MEVVEVWPYGQNPNGKTEILSQTEDSESLQRLRDIEDFQAEKKKQNVVYTKWLDGVDVKDHDFRKIKDGNIEYYATPLLNGRGFYDINKDFNRDSDKCAAAVAANMFHYWLDRNRDNVDRFLRQNPEKHGIIELPDGQLKLSDFLNTYESDDGYRDKSKLFDFISNNFNGPVWTDKLLDNYINGYAYNYKYGRTIEDPTKNTSKINFFKEVFNEKILTNNHSIRNQNEFSVLLSEALYTGKAIGLSYGPAGLRHSLGHIISVWGADLDADGNVVAIYVTDSDDKKLTIGDERVGLKRYKISTDDEGRARLTAYEETHNTGGQIRGLWTLDTGKQAWADYFDKTEQTGTDQAEQLEHHHHHH
2. PRT-222 (enzyme) MEVVEVWPYGQNPNGKTEILSQTEDSESLQRLRDIEDFQAEKKMQNVVYTKWLDGVDVKDHDFRKIVDGNIAYYATPLLNGRGFYDINKDFNRDSDKCAAAVAANMFHYWLDINRDNVDRFLRQNPEKHGIIELPDGQLKLSDFLNTYESDHGYRDKSKLFDFISNNFNGPVWTDKLLDNYINGYAYNYKYGRTIEDPTKNTSKINFFKEVFNEKILTNNHSIRNQNEFSVLLSEALYTGKAIGLSYGPAGLRHSLGHIISVWGADLDADGNVVAIYVTDSDDKKLTIGDERVGLKRYKISTDDEGRLRLTAYEETHNTGGQIRGLWTLDTGKYAWADYFDKTEQTGTDQAEQLEHHHHHH

RESULT:
[0, 487]
